System: MDA-MB-435 melanoma
Assay: NCI-60 one-dose screen, 48 h
Conditions: 10 µM unless noted
Compounds without any hit were thinned out: in the full panel of roughly 83,000, 20% have a hit. The source made the active and inactive calls. The calls were made as follows: active = growth percent below 10; inactive = the rest.
Output constraint: value belongs to active, inactive

Sample answers from the record:
Clc1ccc2nc(CI)c(CI)nc2c1    inactive
NC(=O)c1cc(Cl)ccc1NC(=O)c1ccccc1-c1ccccc1    active
O=C1C=CC(=O)N1c1ccccc1N1C(=O)C=CC1=O    inactive
CC[C@H]1CN2CCc3cc(OC)c(OC)cc3C2C[C@@H]1CC1NCCc2cc(OC)c(OC)cc21 (stereo not given in full)    active

Please turn your attention to the following entry.
Tell me the recorded outcome of this test for COc1cc(C2=NN(C=O)C(c3cccc(Nc4ccnc5cc(Cl)ccc45)c3)C2)cc(OC)c1OC (stereo not given) .
inactive

Origin of measurements: PubChem BioAssay (NCI)
